biological target: COP9 signalosome complex subunit 5 (Homo sapiens); assay: Induction of PD-L1 degradation in human NCI-H460 cells at 10 uM incubated for 24 hrs by Western blot analysis; type: cell-based
Calls of active or inactive are those of the source. The rule behind the calls is not given here.
Would you mind answering with one of these outcomes? class 1 (active), class 0 (inactive)

Outcome logged for `COc1ccc2cc3[n+](cc2c1OCCCCCN)CCc1cc2c(cc1-3)OCO2.[Cl-]` in this assay:
class 1

Same thing, different molecule: `COc1ccc2cc3[n+](cc2c1OCCCN)CCc1cc2c(cc1-3)OCO2.[Cl-]`
class 1

Same read-out for `COc1cc2c(cc1OC)-c1cc3ccc(OC)c(OCCCCCN)c3c[n+]1CC2.[Cl-]` ?
class 1

Same question for `COc1ccc2cc3[n+](cc2c1OCCN)CCc1cc2c(cc1-3)OCO2.[Cl-]` please.
class 0

Same lookup for COc1ccc2cc3[n+](cc2c1OC)CCc1cc2c(cc1-3)OCO2.[Cl-] [BERBERINE CHLORIDE] , please.
class 1

All figures here come from ChEMBL document CHEMBL6092191.
